Recorded values, source PubChem BioAssay AID1986.

Test: inhibitors of HIV fusion peptide binding, primary screen, biochemical, uHTS, fluorescence dequenching (AID 1986)
Settings: cell-free peptide binding, 30 min, at 20 µM, hits give high values
The whole screen tested about 290,000 compounds, of which about 890 (0.31%) were called active. Many of the other results were omitted from the sample, so actives are more common in it than they were.
Measured metric: inhibition (%)
Record the value in %, omitting the unit from your answer.

Take a look at these entries with their results.
- Compound string: "O=Cc1ccc(-c2cccc(C(=O)O)c2)o1"
  Measured metric: "inhibition"
  Recorded number: 2.4
- Compound string: "N#C/C(=C/c1ccc(-c2cc(C(=O)O)cc(C(=O)O)c2)o1)c1nc2ccccc2s1"
  Measured metric: "inhibition"
  Recorded number: 92.9
- Compound string: "N#C/C(=C\\c1ccc(-c2ccc([N+](=O)[O-])cc2)o1)C(=O)Nc1nc(-c2cccs2)cs1"
  Measured metric: "inhibition"
  Recorded number: -1.7
- Compound string: "N#C/C(=C\\c1ccc(-c2ccc(F)cc2)o1)C(=O)Nc1nc(-c2cccs2)cs1"
  Measured metric: "inhibition"
  Recorded number: 14.4

Please find the next compound below.
Asked: I am curious: what inhibition value has been reported for O=C(O)c1cc(-c2ccc(/C=C3\NC(=O)N(c4ccccc4)C3=O)o2)ccc1Cl ?
Given back: 32.2
